- target-or-system: ZFP SBS#732 (synthetic)
- Sequence (chain, as listed by the source): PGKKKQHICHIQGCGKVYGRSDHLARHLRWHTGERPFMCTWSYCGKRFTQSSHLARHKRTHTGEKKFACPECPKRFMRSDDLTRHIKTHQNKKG
- experiment-summary: EMSA
- experimental-setup: tags: MBP fusion
observation-type: pKd
pKd here is simply -log10 of the concentration when that concentration is written in mol/L.

The binder listed as GCGGGTGGGG (dsDNA) DNA 1: GCGGGTGGGG DNA 2: CCCCACCCGC has a reported pKd of 7.65
